Values from paper PMC6345968

Give measured FP signal for each item. Keep answers brief.
Test system: Hsp90 in HEPG2 lysate
details: HepG2 lysate, 4.115 nM compound, raw
Please state the value as a number alone, without comment.

## Input What does the data say about its FP signal? Entry: CC1CC2OC2C=CC=CC(=NOCCN2CCCC2=O)Cc2c(Cl)c(O)cc(O)c2C(=O)O1 (stereo not drawn) [KF58333, reference compound]
## Output 188

## Input What does the data say about its FP signal? Entry: CC1CC2OC2C=CC=CC(=NOCc2ccccc2)Cc2c(Cl)c(O)cc(O)c2C(=O)O1 (mixture of isomers)
## Output 205

## Input What does the data say about its FP signal? Entry: COc1ccc(CON=C2C=CC=CC3OC3CC(C)OC(=O)c3c(O)cc(O)c(Cl)c3C2)cc1 (mixture of isomers)
## Output 207
